The measurements presented in this section are drawn from the RNAGym collection of RNA variant scans (doi:10.7554/elife.90254).

B1: OR4K15 (parent)
chain: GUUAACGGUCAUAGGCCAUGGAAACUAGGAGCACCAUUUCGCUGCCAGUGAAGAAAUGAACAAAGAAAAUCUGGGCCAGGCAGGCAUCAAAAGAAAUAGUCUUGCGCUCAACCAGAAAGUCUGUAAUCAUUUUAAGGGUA

- Variants of: B1
- experiment: self-cleavage, relative activity (ratio to wild type); higher = more cleavage; in vitro, sequencing; the parent is a self-cleaving ribozyme
observation_type: self-cleavage
A bare number is all that is needed in reply.

## Input Would you mind telling me what self-cleavage value was observed for U108C U122A ?
## Output 0.01

## Input Queued: U57C A59G
## Output 0.57

## Input Item: A59G A118G
## Output 0.75

## Input Please answer likewise for `U43C`
## Output 1.29

## Input Same question, U87A G137A this time
## Output 1.96

## Input Next: U26C A60G
## Output 1.61

## Input Next: A116U A126U
## Output 0.21

## Input Please answer likewise for A18G U87A
## Output 1.14

## Input Follow-up entry: A52G A116G
## Output 0.91

## Input Try C42G A111G next.
## Output 0

## Input Same lookup for A47G U131C , please.
## Output 0.71

## Input Another variant to look at: G14A A36G
## Output 1.17

## Input Please answer likewise for A52G A118U
## Output 0.59

## Input Same read-out for A18U A52U ?
## Output 1.6

## Input Can you handle G14A U43C next?
## Output 0.99

## Input Now the same for U39A U120C
## Output 0.95

## Input Also, A23U A118G please.
## Output 0.66

## Input Next: U103C A116U
## Output 0.23

## Input Subsequent entry: C17U A51G
## Output 0.85

## Input Try this variant next: A24U A91G
## Output 1.09

## Input Thanks! And A67U U120C ?
## Output 1.13

## Input Now the same for A59G U72C
## Output 0.23
